- runDescription: resazurin metabolic signal in A549 cells – cell-based, resazurin fluorescence, 24 h, PK04 Diversity Set, profiling panel (AID 1171); also: test concentration not given here
- conditionNotes: A549 viability, higher = more signal, called active from +8 up or from −8 down
readoutType: z-score

{"molecule": "COC(=O)C(CC#Cc1ccc2c(c1)[C@]1(C(=O)N2)[C@H](C(=O)N2CCc3cc(OC)c(OC)cc3C2)[C@H]2C(=O)O[C@H](c3ccccc3)[C@H](c3ccccc3)N2[C@@H]1c1ccccc1OCCO)C(=O)OC", "readoutType": "z-score", "testResult": -0.694}
{"molecule": "CC(C)(C)N1CC=CC23O[C@@H]4/C=C\\CCCOC(=O)C4[C@H]2C(=O)N(CCCO)[C@@H]3C1=O (some centres undefined)", "readoutType": "z-score", "testResult": 0.114}
{"molecule": "C=C(COC)/C(=C/C[C@@H](OC(C)=O)c1ccccc1OCCO)c1cnc2ccccc2c1", "readoutType": "z-score", "testResult": -1.69}
{"molecule": "CC(C)(C)N1CC=CC23O[C@@H]4/C=C\\CCCOC(=O)C4[C@H]2C(=O)N(CCCCCO)[C@@H]3C1=O (some centres undefined)", "readoutType": "z-score", "testResult": -0.543}

These measurements were taken from PubChem BioAssay.
